# Test system: c-Src
# RUN_DESCRIPTION: phosphorylation enrichment, bacterial display (enrichment ratio); higher = better substrate or ligand; peptides without Tyr show the background
Catalogue of phosphorylation enrichment readings, one per entry.
Respond numerically, and do not add a unit to the figure.

ENTRY_SEQUENCE	phosphorylation enrichment
KEELAYLKKNH [KRT14_Y248]	0.35
SQPASYQRRFL [PPIG_Y320_L324F]	0.466
NPIGLYSAETL [LDB3_Y202]	0.962
VIKDKYPQARF [APTX_Y209_K211Q_YF]	0.44
PDGREYIFVDP [PDGFRA_Y572_H570R_YF]	0.431

Input line: Which value of phosphorylation enrichment has been reported for RKIMGYSIRTI [IDS_Y490_I485R] in the records?
Output line: 0.666

Input line: Which value of phosphorylation enrichment has been reported for VLALWYYYLTH [ZDHHC23_Y127] in the records?
Output line: 1.24

====

# ASSAYED_TARGET: FGFR3 (UniProt P22607)
# Sequence (P22607 whole entry, looked up): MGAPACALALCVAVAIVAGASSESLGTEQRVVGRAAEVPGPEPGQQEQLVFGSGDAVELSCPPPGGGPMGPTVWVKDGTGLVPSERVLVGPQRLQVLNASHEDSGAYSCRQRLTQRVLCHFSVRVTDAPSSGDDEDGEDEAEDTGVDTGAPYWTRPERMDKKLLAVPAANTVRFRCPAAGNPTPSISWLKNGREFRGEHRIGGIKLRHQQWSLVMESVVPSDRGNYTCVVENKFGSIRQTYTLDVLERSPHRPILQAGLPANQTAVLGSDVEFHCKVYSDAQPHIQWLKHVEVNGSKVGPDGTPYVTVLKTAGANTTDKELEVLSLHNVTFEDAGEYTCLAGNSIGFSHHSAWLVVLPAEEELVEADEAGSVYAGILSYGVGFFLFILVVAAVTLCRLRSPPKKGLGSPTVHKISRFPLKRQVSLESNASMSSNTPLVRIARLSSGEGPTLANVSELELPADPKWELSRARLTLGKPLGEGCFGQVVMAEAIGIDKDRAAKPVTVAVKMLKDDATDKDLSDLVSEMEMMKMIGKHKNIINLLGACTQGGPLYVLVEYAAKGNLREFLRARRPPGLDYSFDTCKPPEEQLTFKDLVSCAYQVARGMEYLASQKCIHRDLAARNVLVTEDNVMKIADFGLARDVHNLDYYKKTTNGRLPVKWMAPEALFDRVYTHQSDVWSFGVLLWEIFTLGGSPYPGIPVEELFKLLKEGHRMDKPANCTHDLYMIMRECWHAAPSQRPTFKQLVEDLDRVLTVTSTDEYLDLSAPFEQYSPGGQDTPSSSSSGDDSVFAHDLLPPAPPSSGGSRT
# RUN_DESCRIPTION: phosphorylation enrichment, bacterial display (enrichment ratio); higher = better substrate or ligand; peptides without Tyr show the background
Consider the following partition of reported phosphorylation enrichment into named classes: lowest: < 0.5; middle: ≥ 0.5 and < 0.7; highest: ≥ 0.7

ENTRY_SEQUENCE	CATEGORY_LABEL
QGQHWYSSSDK [CASP10_Y9]	middle

Input line: GET /class?item= YGSSSSGGAGG [RPA2_Y14_Y14S]
Output line: lowest

Input line: GET /class?item= WNEVGYDDIGG [VCP_Y203_L198W]
Output line: highest

Input line: GET /class?item= YAANYYKLLGN [ROR2_Y646_D644N]
Output line: highest

Input line: GET /class?item= AGADGYDYLAP [FOXL2_Y186_G187D]
Output line: highest

Input line: GET /class?item= GFEVVYVTEPI [HSP90AB1_Y512_M513V]
Output line: middle

Input line: GET /class?item= DALDNYVVRGV [PCCA_Y473_I475V]
Output line: lowest

Input line: GET /class?item= KKHIPYRQHKS [CSNK1G2_Y206_E208Q]
Output line: highest

Input line: GET /class?item= TPLSAYQIPRT [GAB2_Y324]
Output line: lowest

Input line: GET /class?item= FSCLPYRRLAF [SLC52A2_Y305_G306R_YF]
Output line: middle

Input line: GET /class?item= YNDSTYNQQLI [ZPLD1_Y198]
Output line: lowest

Input line: GET /class?item= FGLQAYTKVKT [ALDH2_Y502_E504K_YF]
Output line: highest

Input line: GET /class?item= PSDSGYSFETI [MAP1B_Y1921_YF]
Output line: highest

====

# ASSAYED_TARGET: Grb2 SH2 (UniProt P62993)
# Sequence (P62993 whole entry, looked up): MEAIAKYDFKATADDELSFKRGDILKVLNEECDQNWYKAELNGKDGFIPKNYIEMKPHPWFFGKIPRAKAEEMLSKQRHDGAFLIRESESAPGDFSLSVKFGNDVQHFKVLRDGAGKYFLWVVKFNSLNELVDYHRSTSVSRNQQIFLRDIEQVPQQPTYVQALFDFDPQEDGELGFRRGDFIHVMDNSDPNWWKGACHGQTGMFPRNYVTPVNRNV
# RUN_DESCRIPTION: SH2 binding enrichment of the phosphorylated peptide, bacterial display (enrichment ratio); higher = better substrate or ligand; peptides without Tyr show the background
PARAMETER_MEASURED: SH2 binding enrichment

ENTRY_SEQUENCE	REPORTED_VALUE
GTVRDYPDFNP [ANXA3_Y15_S19N]	0.874
DSGKLYALDGL [INO80_Y1104_V1108G]	0.92
QGQHWYSSSDK [CASP10_Y9]	0.905

Input line: Which value of SH2 binding enrichment has been reported for GYAGKYIAMVM [CYP19A1_Y441_C437Y] in the records?
Output line: 0.883

====

Catalogue of phosphorylation enrichment readings, one per entry.
# ASSAYED_TARGET: EPHB2 (UniProt P29323)
# Sequence (P29323 whole entry, looked up): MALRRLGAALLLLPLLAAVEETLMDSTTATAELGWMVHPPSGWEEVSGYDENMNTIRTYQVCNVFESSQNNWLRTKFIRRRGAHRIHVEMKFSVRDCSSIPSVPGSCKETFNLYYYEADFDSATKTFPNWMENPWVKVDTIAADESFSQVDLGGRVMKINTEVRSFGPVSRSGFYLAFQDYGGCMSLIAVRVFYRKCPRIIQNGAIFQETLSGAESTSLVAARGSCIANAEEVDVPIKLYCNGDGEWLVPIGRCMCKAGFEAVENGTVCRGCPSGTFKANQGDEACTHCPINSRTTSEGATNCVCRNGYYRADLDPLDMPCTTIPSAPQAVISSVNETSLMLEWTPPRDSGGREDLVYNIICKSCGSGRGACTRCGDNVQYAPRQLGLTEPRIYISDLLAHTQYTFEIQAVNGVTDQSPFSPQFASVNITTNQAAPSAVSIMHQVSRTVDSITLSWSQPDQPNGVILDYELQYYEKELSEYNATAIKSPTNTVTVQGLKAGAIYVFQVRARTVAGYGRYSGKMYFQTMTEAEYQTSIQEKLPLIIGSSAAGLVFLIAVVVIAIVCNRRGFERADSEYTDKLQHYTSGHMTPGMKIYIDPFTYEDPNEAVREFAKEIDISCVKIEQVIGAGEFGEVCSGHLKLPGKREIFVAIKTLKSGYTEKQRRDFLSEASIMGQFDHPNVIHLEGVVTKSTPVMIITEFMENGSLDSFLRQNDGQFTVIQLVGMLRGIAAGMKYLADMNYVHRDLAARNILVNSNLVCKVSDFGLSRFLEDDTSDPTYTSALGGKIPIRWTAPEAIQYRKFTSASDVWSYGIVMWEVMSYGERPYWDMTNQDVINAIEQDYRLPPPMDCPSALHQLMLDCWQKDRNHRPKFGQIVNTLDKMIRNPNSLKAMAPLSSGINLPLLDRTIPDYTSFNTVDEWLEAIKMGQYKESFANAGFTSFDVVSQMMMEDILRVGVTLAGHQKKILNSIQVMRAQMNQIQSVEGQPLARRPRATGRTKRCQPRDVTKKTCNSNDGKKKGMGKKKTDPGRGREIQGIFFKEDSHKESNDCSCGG
# RUN_DESCRIPTION: phosphorylation enrichment, bacterial display (enrichment ratio); higher = better substrate or ligand; peptides without Tyr show the background

Recorded results for 5 sequences are shown here.
ENTRY_SEQUENCE	PARAMETER_MEASURED	REPORTED_VALUE
DGKFSYLKVGH [GRM3_Y480_G475D_YF]	phosphorylation enrichment	0.388
ARKCKYFKKHE [NFIX_Y40_R38C]	phosphorylation enrichment	0.403
TNYPLYLRSLE [MTM1_Y71_R69P]	phosphorylation enrichment	0.727
DPHQQYFIAMD [TBX15_Y159_YF]	phosphorylation enrichment	0.577
DSGKLYALDGL [INO80_Y1104_V1108G]	phosphorylation enrichment	0.833

Input line: Which value of phosphorylation enrichment has been reported for GSTLSYFGLAT [P2RX7_Y343_A348T] in the records?
Output line: 0.5

Input line: Which value of phosphorylation enrichment has been reported for SGEKPYKCSEC [ZNF543_Y283] in the records?
Output line: 0.502

Input line: Which value of phosphorylation enrichment has been reported for HQNGTYGLHQD [SGSH_Y89_M88T] in the records?
Output line: 0.541

Input line: Which value of phosphorylation enrichment has been reported for KNKLNYTLPQD [NRAP_Y523] in the records?
Output line: 0.436

====

# ASSAYED_TARGET: FGFR1 (UniProt P11362)
# Sequence (P11362 whole entry, looked up): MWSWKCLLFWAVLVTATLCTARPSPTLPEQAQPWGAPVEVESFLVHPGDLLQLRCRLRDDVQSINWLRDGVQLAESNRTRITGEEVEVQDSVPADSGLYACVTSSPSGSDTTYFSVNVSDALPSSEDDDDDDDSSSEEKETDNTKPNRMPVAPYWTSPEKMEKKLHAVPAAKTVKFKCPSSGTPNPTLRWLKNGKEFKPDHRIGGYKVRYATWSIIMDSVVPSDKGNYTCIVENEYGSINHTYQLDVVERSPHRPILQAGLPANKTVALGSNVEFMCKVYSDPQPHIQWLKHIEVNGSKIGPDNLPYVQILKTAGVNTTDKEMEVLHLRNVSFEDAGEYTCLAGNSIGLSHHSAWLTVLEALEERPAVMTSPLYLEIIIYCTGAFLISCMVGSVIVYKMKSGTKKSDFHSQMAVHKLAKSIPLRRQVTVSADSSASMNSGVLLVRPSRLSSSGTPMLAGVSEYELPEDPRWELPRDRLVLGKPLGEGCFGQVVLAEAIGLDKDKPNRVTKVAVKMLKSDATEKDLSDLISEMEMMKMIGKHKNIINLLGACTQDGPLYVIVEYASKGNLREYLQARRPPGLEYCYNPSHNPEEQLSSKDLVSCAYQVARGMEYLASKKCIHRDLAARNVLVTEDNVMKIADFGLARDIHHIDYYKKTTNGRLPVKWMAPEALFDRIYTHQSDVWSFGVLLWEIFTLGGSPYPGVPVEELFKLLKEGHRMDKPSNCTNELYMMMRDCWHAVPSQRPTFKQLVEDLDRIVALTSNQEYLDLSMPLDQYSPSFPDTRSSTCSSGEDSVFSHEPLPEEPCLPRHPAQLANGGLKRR
# RUN_DESCRIPTION: phosphorylation enrichment, bacterial display (enrichment ratio); higher = better substrate or ligand; peptides without Tyr show the background
PARAMETER_MEASURED: phosphorylation enrichment
Respond numerically, and do not add a unit to the figure.

ENTRY_SEQUENCE	ASSAYED_TARGET	phosphorylation enrichment
TCRPPYYHRNC [HGD_Y333_F329C]	FGFR1 (UniProt P11362)	0.398

Input line: Which value of phosphorylation enrichment has been reported for NGTVTYAIVAG [CDH23_Y1672] in the records?
Output line: 0.545

Input line: Which value of phosphorylation enrichment has been reported for TPLSAYQIPRT [GAB2_Y324] in the records?
Output line: 0.408

Input line: Which value of phosphorylation enrichment has been reported for FGLDRYQCDCT [PTGS1_Y54] in the records?
Output line: 0.587

Input line: Which value of phosphorylation enrichment has been reported for NYADPYRQLQY [CTNND2_Y503] in the records?
Output line: 3.72

Input line: Which value of phosphorylation enrichment has been reported for HHTNEYEFDEL [TGM1_Y134_D132N_YF] in the records?
Output line: 0.702

Input line: Which value of phosphorylation enrichment has been reported for STDDGYIDLQF [TMEM230_Y29] in the records?
Output line: 1.01

Input line: Which value of phosphorylation enrichment has been reported for LAVVDYIRRQK [ATM_Y1915_M1916I] in the records?
Output line: 0.791

====

# Test system: c-Abl (mouse)
# RUN_DESCRIPTION: phosphorylation enrichment, bacterial display (enrichment ratio); higher = better substrate or ligand; peptides without Tyr show the background
Label rule, in plain words: phosphorylation enrichment of 0.8 and up is Met, under 0.8 is Not met.

ENTRY_SEQUENCE	CATEGORY_LABEL
GFKVRYATWSI [FGFR1_Y210_YF]	Not met
DISEPYEVYRI [IRF8_Y107_K108E]	Met
FADIAYNYRHA [PAH_Y166_G171A]	Not met
FAAAGYGSLEA [EPHA10_Y959]	Not met
APSGNYVACGG [GNB1_Y111]	Not met
SGETKYNPTEA [NBEAL2_Y2748_E2747K]	Not met
ARKCKYFKKHE [NFIX_Y40_R38C]	Not met
KLFFIYTSGTT [SLC27A4_Y245_YF]	Met
KSRQIYDAYIM [GRK3_Y109_R104K]	Met
RQQQDYWLKDV [ANPEP_Y600_I603K]	Not met

Continue with the next sequence.
Input line: Item KSDVVYTDWKK [ORM1_Y175] with phosphorylation enrichment of 0.8 or above?
Output line: Met

====

# ASSAYED_TARGET: EPHB2 (UniProt P29323)
# RUN_DESCRIPTION: phosphorylation enrichment, bacterial display (enrichment ratio); higher = better substrate or ligand; peptides without Tyr show the background
PARAMETER_MEASURED: phosphorylation enrichment
Respond numerically, and do not add a unit to the figure.

ENTRY_SEQUENCE	phosphorylation enrichment
VAMELYVFGGV [GAN_Y471]	0.681
ENAGFYFRVSA	0.704

Input line: Which value of phosphorylation enrichment has been reported for VPEANYTSDEE [STK33_Y439_D436E] in the records?
Output line: 0.691

====

# ASSAYED_TARGET: Fyn (UniProt P06241)
# Sequence (P06241 whole entry, looked up): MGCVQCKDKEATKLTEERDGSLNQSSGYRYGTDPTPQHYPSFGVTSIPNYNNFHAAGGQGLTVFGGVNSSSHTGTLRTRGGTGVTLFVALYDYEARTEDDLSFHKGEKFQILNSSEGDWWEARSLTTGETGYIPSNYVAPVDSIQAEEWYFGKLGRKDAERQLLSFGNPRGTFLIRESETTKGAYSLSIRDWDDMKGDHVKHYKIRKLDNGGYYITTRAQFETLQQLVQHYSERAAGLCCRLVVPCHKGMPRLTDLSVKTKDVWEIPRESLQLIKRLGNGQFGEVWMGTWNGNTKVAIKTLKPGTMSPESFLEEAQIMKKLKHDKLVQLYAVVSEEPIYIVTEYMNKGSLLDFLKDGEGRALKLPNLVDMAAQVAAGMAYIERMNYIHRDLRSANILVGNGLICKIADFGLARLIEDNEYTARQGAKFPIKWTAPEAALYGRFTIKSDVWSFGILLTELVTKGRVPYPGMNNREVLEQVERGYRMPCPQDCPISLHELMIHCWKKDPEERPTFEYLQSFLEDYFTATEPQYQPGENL
# RUN_DESCRIPTION: phosphorylation enrichment, bacterial display (enrichment ratio); higher = better substrate or ligand; peptides without Tyr show the background
Label rule, in plain words: phosphorylation enrichment of 0.5 and up is yes, under 0.5 is no.

Some entries whose results are on file:
ENTRY_SEQUENCE	CATEGORY_LABEL
SDVCMYRKNTF [SYNE2_Y570_I574T_YF]	no
EQLRAYLEGEC [HLA-C_Y183_T187E]	yes
KTSGNYLPVTG [WDR19_Y28_A30P]	no

Input line: Item KMKGDYFRFLA [YWHAG_Y130_YF] with phosphorylation enrichment of 0.5 or above?
Output line: yes

Input line: Item QAYSWYQHQRA [NDST1_Y714_R709Q] with phosphorylation enrichment of 0.5 or above?
Output line: yes

Input line: Item QPGTDYKIFLF [FN1_Y1970_YF] with phosphorylation enrichment of 0.5 or above?
Output line: yes

Input line: Item GLGGGYGGASG [KRT8_Y54] with phosphorylation enrichment of 0.5 or above?
Output line: no

Input line: Item KLQKKYGPISS [CYP17A1_Y60_Y64S] with phosphorylation enrichment of 0.5 or above?
Output line: no

Input line: Item ACEVLYNIAFM [NCF2_Y125] with phosphorylation enrichment of 0.5 or above?
Output line: yes

Data provenance is the supplement of paper PMC10065799.
